- System: astro (control astrocytes)
- assay: Drug repurposing screens with cells derived from glioblastoma tumor samples (AID 1345199); note: nearly all actives have a fitted effect of over 40% in size
- test_context: viability, ATP luminescence, 48 h; series mostly up to 45.9 µM
Results filed as inconclusive are left out. Calls of active or inactive are those of the source. Calls come from the whole dose curve; as a rule, active = well fitted inhibition curve with a large enough effect; inconclusive = small, poorly fitted or top-dose-only effect; inactive = flat fitted curve, though single readings scatter.
Entry note: the call must match one of active, inactive

Past entries and their recorded results:
- molecule: "CC[N+](C)(CC)CCOC(=O)C(O)(c1ccccc1)c1ccccc1"
  answer_label: "inactive"
- molecule: "CNc1ccc(C(=O)CC(O)CCC(C)C2OC(=O)CC(O)CC(=O)CC(O)CC(O)CC(O)CC(O)CC3(O)CC(O)C(C(=O)OC)C(CC(O[C@@H]4O[C@H](C)[C@@H](O)[C@H](N)[C@@H]4O)/C=C/C=C/C=C/C=C/C=C/C=C/C=C/C2C)O3)cc1 (some centres undefined)"
  answer_label: "inactive"
- molecule: "O=C(CCl)c1ccc(Oc2ccc(C(=O)CCl)cc2)cc1"
  answer_label: "inactive"
- molecule: "c1csc(C2(N3CCCCC3)CCCCC2)c1"
  answer_label: "inactive"
- molecule: "C[C@]12CC[C@H](OS(=O)(=O)O)CC1=CC[C@@H]1[C@@H]2CC[C@]2(C)C(=O)CC[C@@H]12"
  answer_label: "inactive"
- molecule: "C[N+]1([O-])[C@@H]2CC[C@H]1CC(OC(=O)C(CO)c1ccccc1)C2 (some centres undefined)"
  answer_label: "inactive"
- molecule: "C[C@]12CC[C@H](O)C[C@H]1CC[C@@H]1[C@@H]2CC[C@]2(C)[C@@H](c3ccc(=O)oc3)C[C@H]3O[C@]132"
  answer_label: "active"
- molecule: "S=C(S)N1CCNCC1"
  answer_label: "inactive"
- molecule: "CC(=O)OO"
  answer_label: "inactive"
- molecule: "C[C@H]1CC[C@]2(NC1)O[C@H]1C[C@H]3[C@@H]4CC[C@H]5C[C@@H](O[C@@H]6O[C@H](CO)[C@H](O[C@@H]7O[C@H](CO)[C@@H](O)[C@H](O[C@@H]8OC[C@@H](O)[C@H](O)[C@H]8O)[C@H]7O[C@@H]7O[C@H](CO)[C@@H](O)[C@H](O)[C@H]7O)[C@H](O)[C@H]6O)CC[C@]5(C)[C@H]4CC[C@]3(C)[C@H]1[C@@H]2C"
  answer_label: "active"

Query: Assay outcome for Clc1ccc(C(Cn2ccnc2)OCc2csc3c(Cl)cccc23)c(Cl)c1 (centres undefined) : what was it?
Reply: inactive

Query: Assay outcome for CC(=O)O[C@H]1C[C@H](O[C@H]2[C@@H](O)C[C@H](O[C@H]3[C@@H](O)C[C@H](O[C@H]4CC[C@@]5(C)[C@H](CC[C@@H]6[C@@H]5C[C@@H](O)[C@]5(C)[C@@H](C7=CC(=O)OC7)CC[C@]65O)C4)O[C@@H]3C)O[C@@H]2C)O[C@H](C)[C@H]1O[C@@H]1O[C@H](CO)[C@@H](O)[C@H](O)[C@H]1O : what was it?
Reply: active

Query: Assay outcome for CCN(CC)CCO[C@H]1CC[C@@]2(C)C(=CC[C@@H]3[C@@H]2CC[C@]2(C)C(=O)CC[C@@H]32)C1 : what was it?
Reply: inactive

Query: Assay outcome for CCC1(c2ccccc2)C(=O)NC(=O)N(C(=O)c2ccccc2)C1=O (centres undefined) : what was it?
Reply: inactive

---

- assay: qHTS to identify inhibitors of the type 1 interferon - major histocompatibility complex class I in skeletal muscle: primary screen against the NCATS LOPAC collection (AID 1347405);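 note: human myoblasts with HiBiT tag on endogenous HLA-B stimulated by IFN-beta; lytic HiBiT luminescence reporting HLA-B protein level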
- test_context: iHSKM muscle cells, IFN-b-induced MHC-I HiBiT luminescence, 24 h; series mostly up to 45.9 µM
Results filed as inconclusive are left out. The source made the active and inactive calls. Calls follow the shape of the dose curve; as a rule, active = well fitted inhibition curve with a large enough effect; inconclusive = small, poorly fitted or top-dose-only effect; inactive = flat fitted curve, though single readings scatter.
Entry note: the call must match one of TRUE (active), FALSE (inactive)

Past entries and their recorded results:
- molecule: "c1ccc2c(c1)[I+]c1ccccc1-2"
  answer_label: "TRUE"
- molecule: "NC(C(=O)O)c1cc(=O)[nH]o1 (stereo not drawn)"
  answer_label: "FALSE"
- molecule: "CC(C)NP(=O)(NC(C)C)OP(=O)(NC(C)C)NC(C)C"
  answer_label: "FALSE"

Query: Assay outcome for C[N+]1(C)C2CCC1CC(OC(=O)c1c[nH]c3ccccc13)C2 (stereo not drawn) : what was it?
Reply: FALSE

Query: Assay outcome for NC(N)=Nc1ccc2[nH]c3c(c2c1)C[C@@]1(O)[C@H]2Cc4ccc(O)c5c4[C@@]1(CCN2CC1CC1)[C@H]3O5 : what was it?
Reply: FALSE

Query: Assay outcome for Nc1cc2c(ncn2CCOCP(=O)(O)O)c(=O)[nH]1 : what was it?
Reply: FALSE

Query: Assay outcome for Cc1sc2ccccc2c1CC1=NCCN1 : what was it?
Reply: FALSE

Query: Assay outcome for C[N+]1(C)CCOC(O)(c2ccc(-c3ccc(C4(O)C[N+](C)(C)CCO4)cc3)cc2)C1 (stereo not drawn) : what was it?
Reply: FALSE

Query: Assay outcome for C[N+](C)(C)CC#CCN1CCCC1=O : what was it?
Reply: FALSE

Query: Assay outcome for CN1C2CCC1CC(OC(c1ccccc1)c1ccccc1N)C2 (stereo not drawn) : what was it?
Reply: FALSE

Query: Assay outcome for CCCN(CCC)C1CCc2cccc(O)c2C1 (stereo not drawn) : what was it?
Reply: FALSE

Query: Assay outcome for NC(=O)COc1c(F)cc(SCCNS(=O)(=O)c2ccccc2)cc1F : what was it?
Reply: FALSE

Query: Assay outcome for C[C@H](Cc1ccc2c(c1)OC(C(=O)O)(C(=O)O)O2)NC[C@H](O)c1cccc(Cl)c1 : what was it?
Reply: FALSE

Query: Assay outcome for CC(=O)OCC1=C(C(=O)O)N2C(=O)[C@@H](NC(=O)CCC[C@@H](N)C(=O)O)[C@H]2SC1 : what was it?
Reply: FALSE

Query: Assay outcome for COc1ccc2[nH]cc(CCN)c2c1 : what was it?
Reply: FALSE

Query: Assay outcome for CC(C)(O)[C@@H]1C2OC(=O)[C@@H]1[C@]1(O)C[C@H]3O[C@]34C(=O)O[C@H]2[C@]14C (tested in a mixture with another compound) : what was it?
Reply: FALSE

Query: Assay outcome for COc1ccc2[nH]c3c(c2c1)CCNC3 : what was it?
Reply: FALSE

Query: Assay outcome for Clc1cc(I)cc(Cl)c1NC1=NCCN1 : what was it?
Reply: FALSE

Query: Assay outcome for Cc1c2ccncc2c(C)c2c1[nH]c1ccccc12 : what was it?
Reply: TRUE

Query: Assay outcome for NC(=O)CI : what was it?
Reply: FALSE

Query: Assay outcome for C[C@H](N)Cc1cccc(C(F)(F)F)c1 : what was it?
Reply: FALSE

Query: Assay outcome for CCNC(=O)[C@H]1O[C@@H](n2cnc3c(N)ncnc32)[C@H](O)[C@@H]1O : what was it?
Reply: FALSE

Query: Assay outcome for O=S1(=O)N(CCN2CC=C(c3c[nH]c4cc(F)ccc34)CC2)c2cccc3c2N1CCC3 : what was it?
Reply: FALSE

---

- assay: Primary fluorescence-based thiol-reactive (MSTI) qHTS assay for identification of artifact compounds. (AID 1845221);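 note: thiol-reactive compounds lower the probe fluorescence signal; nearly all actives have a fitted effect of over 65% in size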
- test_context: MSTI thiol-reactivity probe, 1 h; series mostly up to 53.8 µM
Results filed as inconclusive are left out. Activity calls are given as the source filed them. The call rests on the fitted dose curve; in most records, active means well fitted inhibition curve with a large enough effect; inconclusive means small, poorly fitted or top-dose-only effect; inactive means no such curve, though single readings can be large or run the other way.
measurement_name: activity change, negative = thiol reactive

- molecule: "CC1=C2C[C@H]3[C@@H](CC=C4C[C@@H](O)CC[C@@]43C)[C@@H]2CC[C@]12O[C@@H]1C[C@H](C)CN[C@H]1[C@H]2C"
  data_value: "inactive"
- molecule: "CCCCCOc1cc2c(cc1-c1cc(/C=C/C(=O)O)ccc1O)C(C)(C)CCC2(C)C"
  data_value: "inactive"
- molecule: "CN1CCCC1CCOC(c1cc2nccc(C(=O)O)c2[nH]1)c1ccccc1Cl (stereo not drawn)"
  data_value: "inactive"

---

# maps each entry to its activation
- assay: qHTS assay for environmental chemicals that activate the Aryl hydrocarbon Receptor (AhR) signaling pathway (AID 651777); note: % of control where 0% means no effect; nearly all actives have a fitted effect of over 15% in size
- test_context: 1A2-DRE human hepatoma cells, luciferase, 24 h; active compounds read high
Records with an inconclusive call do not appear. Activity calls are given as the source filed them. The call rests on the fitted dose curve; in most records, active means well fitted activation curve with a large enough effect; inconclusive means small, poorly fitted or top-dose-only effect; inactive means flat fitted curve, though single readings scatter.

- compound: "O=[N+]([O-])C(Br)(CO)CO"
  activation: "5.58% (inactive)"
- compound: "Clc1ccccc1Cl"
  activation: "-0.403% (inactive)"
- compound: "O=C1C=CC(=O)C=C1"
  activation: "1.56% (inactive)"
- compound: "COCC(C)N(C(=O)CCl)c1c(C)csc1C (configuration not stated)"
  activation: "-1.87% (inactive)"
- compound: "C[CH2][Hg][S]c1ccccc1C(=O)O"
  activation: "-11.2% (inactive)"
- compound: "O=c1[nH]c(=O)n(Cl)c(=O)n1Cl"
  activation: "-2.06% (inactive)"

The reported activation of the compound [Cl-].[Cl-].[Hg+2] was 1.68% (inactive)

The reported activation of the compound COc1ccc2c(c1OC)C(=O)OC2C1c2cc3c(cc2CCN1C)OCO3 (configuration not stated) was 0.0911% (inactive)
